Data origin, for the record: patent US10351522B2

Measured Response (%) OX2R by item
# measuredTarget: human OX2R (Homo sapiens, UniProt O43614)
# Construct: expressed in transfected cells; host or cells: CHO (Chinese hamster ovary) cells, line CHOOX2R, co-expressing NFAT-luciferase
# Sequence (O43614 1-444): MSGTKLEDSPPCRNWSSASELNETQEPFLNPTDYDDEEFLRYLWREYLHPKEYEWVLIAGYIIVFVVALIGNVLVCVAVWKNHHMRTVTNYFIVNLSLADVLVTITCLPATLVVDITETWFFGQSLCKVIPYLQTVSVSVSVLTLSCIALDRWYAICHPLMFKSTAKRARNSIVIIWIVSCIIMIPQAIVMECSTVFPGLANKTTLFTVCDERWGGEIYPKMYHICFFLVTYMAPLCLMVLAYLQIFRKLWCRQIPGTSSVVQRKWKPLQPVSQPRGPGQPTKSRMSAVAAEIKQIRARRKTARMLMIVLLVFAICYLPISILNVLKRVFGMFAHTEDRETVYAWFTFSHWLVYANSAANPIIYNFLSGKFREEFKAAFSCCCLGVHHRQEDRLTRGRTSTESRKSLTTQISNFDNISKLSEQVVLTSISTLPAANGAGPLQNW
# assayProcedure: Agonist activity against OX2R: intracellular calcium (Fura-2AM, FDSS7000) in CHOOX2R cells
# Type: cell-based
# conditionSet: 1.0 μM test compound; relative to orexin-A as full agonist (100%)

Observe how each entry below is paired with its result.
- structureSmiles: "COc1ccc(-c2cccc(C(=O)N(C)C)c2)cc1S(=O)(=O)Nc1cccc(NC(=O)c2ccncc2)c1"
  measuredTarget: "human OX2R (Homo sapiens, UniProt O43614)"
  Response (%) OX2R: "<5%"
- structureSmiles: "COc1ccc(-c2cccc(C(=O)N(C)C)c2)cc1S(=O)(=O)Nc1cccc(NC(=O)Nc2cccc(NC(=N)N)c2)c1"
  measuredTarget: "human OX2R (Homo sapiens, UniProt O43614)"
  Response (%) OX2R: "<5%"

Shifting focus to the compound that follows.
IN: Please look up its Response (%) OX2R: COc1ccc(-c2cccc(C(=O)N(C)C)c2)cc1S(=O)(=O)Nc1cccc(Nc2ccccc2)c1
OUT: <5%
